# method notes: RepliGut human jejunal organoid-derived monolayer permeability assay
# condition notes: human, pH 7.4, efflux ratio, intestinal organoids, all concentrations
measurement kind: efflux ratio at 3 h

### Prompt Indicate the recorded efflux ratio at 3 h value for this molecule: Nc1cccc2c1CN(C1CCC(=O)NC1=O)C2=O (stereo not shown) [Lenalidomide]
### Response 3 to 4

====

# method notes: gMDCK (P-gp knockout MDCK) monolayer permeability assay
# condition notes: dog, MDCK, Lenalidomide Permeability in gMDCK Cells, FeSSIF, 10 uM
measurement kind: Papp at 3 h, 10 µM (×10⁻⁶ cm/s)
Your answer is read as ×10⁻⁶ cm/s, so omit the unit and give the number.

### Prompt Indicate the recorded Papp at 3 h, 10 µM value for this compound: Nc1cccc2c1CN(C1CCC(=O)NC1=O)C2=O (stereo not shown) [Lenalidomide]
### Response 0.07

====

# method notes: Lenalidomide pharmacokinetic study in rats (IV and oral)
# Assay type: in vivo, Sprague Dawley rats
# condition notes: Sprague Dawley, rat, plasma; male rats, 2 mg/kg PO
measurement kind: half-life
Just the number plus its unit, please.

### Prompt Indicate the recorded half-life value for this compound: Nc1cccc2c1CN(C1CCC(=O)NC1=O)C2=O (stereo not shown) [Lenalidomide]
### Response 1.4 h

====

# method notes: Lenalidomide pharmacokinetic study in rats (IV and oral)
# Assay type: in vivo, Sprague Dawley rats
# condition notes: Sprague Dawley, rat, plasma; male rats, 50 mg/kg PO
measurement kind: Cmax (µM)
Your answer is read as µM, so omit the unit and give the number.

### Prompt Indicate the recorded Cmax value for this molecule: Nc1cccc2c1CN(C1CCC(=O)NC1=O)C2=O (stereo not shown) [Lenalidomide]
### Response 29

====

# target of assay: P-gp (MDR1) (Homo sapiens, UniProt P08183)
# Construct: expressed in transfected cells; host or cells: gMDCK (P-gp-knockout Madin-Darby Canine Kidney cells), puromycin selection
# Sequence (P08183 whole entry): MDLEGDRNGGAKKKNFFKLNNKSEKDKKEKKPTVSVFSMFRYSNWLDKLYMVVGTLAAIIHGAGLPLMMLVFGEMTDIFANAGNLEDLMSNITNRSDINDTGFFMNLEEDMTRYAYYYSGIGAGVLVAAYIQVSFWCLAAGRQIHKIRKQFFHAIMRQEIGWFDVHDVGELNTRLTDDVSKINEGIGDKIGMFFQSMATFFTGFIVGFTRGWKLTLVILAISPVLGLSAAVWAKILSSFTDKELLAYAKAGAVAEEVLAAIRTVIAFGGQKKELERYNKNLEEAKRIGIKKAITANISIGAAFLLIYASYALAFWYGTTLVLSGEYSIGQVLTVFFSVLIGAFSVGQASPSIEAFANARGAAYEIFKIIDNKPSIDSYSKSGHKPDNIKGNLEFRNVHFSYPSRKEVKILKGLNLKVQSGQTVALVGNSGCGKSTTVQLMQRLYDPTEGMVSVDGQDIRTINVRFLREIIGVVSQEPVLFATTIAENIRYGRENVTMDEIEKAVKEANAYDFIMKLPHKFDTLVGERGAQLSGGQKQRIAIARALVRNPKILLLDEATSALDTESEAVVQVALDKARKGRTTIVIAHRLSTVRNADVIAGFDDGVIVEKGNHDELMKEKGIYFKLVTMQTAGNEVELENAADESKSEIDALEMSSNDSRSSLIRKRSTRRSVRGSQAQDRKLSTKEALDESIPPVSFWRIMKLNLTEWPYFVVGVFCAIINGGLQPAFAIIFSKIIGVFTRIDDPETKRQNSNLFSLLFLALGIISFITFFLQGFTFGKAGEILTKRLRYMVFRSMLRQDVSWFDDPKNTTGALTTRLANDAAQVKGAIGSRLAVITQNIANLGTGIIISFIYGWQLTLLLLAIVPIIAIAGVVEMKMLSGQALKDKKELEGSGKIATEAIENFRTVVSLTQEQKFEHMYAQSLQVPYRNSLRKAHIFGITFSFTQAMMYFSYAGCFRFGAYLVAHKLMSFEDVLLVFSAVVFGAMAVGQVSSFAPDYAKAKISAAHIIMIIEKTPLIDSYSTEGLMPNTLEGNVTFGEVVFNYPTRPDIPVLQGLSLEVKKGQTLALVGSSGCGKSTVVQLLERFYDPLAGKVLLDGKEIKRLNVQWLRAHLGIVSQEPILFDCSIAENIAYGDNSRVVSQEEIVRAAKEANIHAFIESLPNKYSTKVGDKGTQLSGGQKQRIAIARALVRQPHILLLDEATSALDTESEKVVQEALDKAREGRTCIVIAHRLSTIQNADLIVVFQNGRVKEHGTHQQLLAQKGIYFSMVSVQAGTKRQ
# method notes: Bidirectional permeability in gMDCK cells overexpressing human P-gp (gMDCK-MDR1)
# Format: in vitro ADME
# condition notes: human, MDCK-MDR1, pH 7.4; gMDCK-MDR1
measurement kind: Papp B→A at 3 h (nm/s)
Your answer is read as nm/s, so omit the unit and give the number.

### Prompt # return Papp B→A at 3 h of Nc1cccc2c1CN(C1CCC(=O)NC1=O)C2=O (stereo not shown) [Lenalidomide] (system: P-gp (MDR1) (Homo sapiens, UniProt P08183))
### Response 28

====

# method notes: in vitro
# condition notes: dog, MDCK, pH 7.4, gMDCK Papp
measurement kind: Papp at 3 h (×10⁻⁶ cm/s)
Your answer is read as ×10⁻⁶ cm/s, so omit the unit and give the number.

### Prompt Indicate the recorded Papp at 3 h value for this molecule: COCCc1ccc(OCC(O)CNC(C)C)cc1 (stereo not shown)
### Response 13

====

# method notes: Lenalidomide pharmacokinetic study in rats (IV and oral)
# Type: in vivo, Sprague Dawley rats
# condition notes: Sprague Dawley, rat, plasma; male rats, 1 mg/kg IV
measurement kind: half-life (h)
Your answer is read as h, so omit the unit and give the number.

### Prompt Indicate the recorded half-life value for this molecule: Nc1cccc2c1CN(C1CCC(=O)NC1=O)C2=O (stereo not shown) [Lenalidomide]
### Response 1.2

Ref: paper PMC12473906
